# System: YSK1;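 note: KINOMEscan kinase panel screen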
# Construct: gene STK25
# assaySetup: concentration: 1 μM, replicates: in singlicate; n = 1
Reported %Inh values follow for various molecules
assayReadout: %Inh (%)

1) Cc1ccc(NC(=O)c2cccc(C#N)c2)cc1-c1ccc(C(=O)Nc2ccncc2)cc1    9
2) Cl.Fc1ccccc1COc1ccc(Nc2ncnc3ccc(-c4nnc(C(F)(F)F)o4)cc23)cc1Cl    0
3) Fc1cccc(COc2ccc(Nc3ncnc4nn5ccccc5c34)cc2Cl)c1    1
4) Clc1ccc(-c2cc(-c3c[nH]nc3-c3ccccn3)ccn2)cc1    0
5) CCCc1ccc(S(=O)(=O)NC2CCN(c3ccnc(Nc4ccc(OC)cc4)n3)C2)cc1 (stereo not drawn)    0
6) Clc1cccc(-c2nc(Nc3ccncc3)c3ccccc3n2)c1    0
7) Nc1nc(-c2cccnc2)c(-c2ccnc3ccccc23)s1    0
8) C[C@@H]1CCN(C(=O)CO)C[C@@H]1N(C)c1ncnc2[nH]ccc12    0
9) Cc1cccc(-c2nc(Nc3ccc4[nH]nnc4c3)c3ccccc3n2)n1    0

Sourced from paper PMC5540273
